Provenance of the data: ChEMBL document CHEMBL3988442

System Under Test: Protein translocase subunit SecA (Escherichia coli (strain K12)) (UniProt P10408)
Sequence (P10408 whole entry): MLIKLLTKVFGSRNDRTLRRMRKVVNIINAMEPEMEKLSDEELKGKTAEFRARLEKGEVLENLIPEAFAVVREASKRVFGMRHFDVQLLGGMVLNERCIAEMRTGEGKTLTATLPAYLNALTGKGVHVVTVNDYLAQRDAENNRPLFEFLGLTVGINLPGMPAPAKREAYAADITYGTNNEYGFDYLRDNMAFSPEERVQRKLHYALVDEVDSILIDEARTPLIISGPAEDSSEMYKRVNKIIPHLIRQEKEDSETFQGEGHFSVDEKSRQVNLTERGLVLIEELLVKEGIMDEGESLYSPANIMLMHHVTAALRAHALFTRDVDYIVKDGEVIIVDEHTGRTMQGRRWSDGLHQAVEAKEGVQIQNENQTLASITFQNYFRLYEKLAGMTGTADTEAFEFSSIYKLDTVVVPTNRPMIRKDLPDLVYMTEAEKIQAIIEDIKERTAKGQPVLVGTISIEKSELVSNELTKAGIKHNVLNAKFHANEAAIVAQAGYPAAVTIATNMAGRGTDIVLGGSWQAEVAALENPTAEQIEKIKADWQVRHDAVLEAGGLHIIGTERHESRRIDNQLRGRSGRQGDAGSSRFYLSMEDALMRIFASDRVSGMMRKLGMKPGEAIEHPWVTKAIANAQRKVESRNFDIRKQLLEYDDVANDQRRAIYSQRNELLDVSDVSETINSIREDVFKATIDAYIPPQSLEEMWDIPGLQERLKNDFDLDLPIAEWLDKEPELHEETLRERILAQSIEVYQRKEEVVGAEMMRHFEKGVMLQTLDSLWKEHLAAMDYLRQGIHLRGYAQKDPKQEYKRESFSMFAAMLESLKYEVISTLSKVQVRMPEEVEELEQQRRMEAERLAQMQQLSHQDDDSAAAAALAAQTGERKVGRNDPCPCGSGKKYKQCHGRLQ
Experimental Details: Assay to Identify E. coli SecA ATPase Inhibitors
Type: functional
Set-up: scale not given: direction of the effect not stated beside the values
Setup Conditions: 30 µM
Measured potencies and affinities stand elsewhere.
Value Kind: Percent Effect (%)
Your answer is read as %, so omit the unit and give the number.

In the examples that follow, each entry is paired with its recorded Percent Effect.
CNC(=O)[C@@]12CCCN(c3ncccn3)[C@@H]1CN(C)C2; -7.94
O=C(Cc1ccccn1)N1CCN2C[C@H](Oc3cccc(F)c3)C[C@H]2C1; -3.38
NCC1(c2cccc(C(F)(F)F)c2)CCOCC1; -1.6
Cn1c(=O)n(C)c2cc(C3SCC(=O)Nc4ccsc43)ccc21 (stereo not drawn); -5.92
Cc1noc(C)c1CN1CC[C@@H]2O[C@@H](COCC(C)C)CC[C@@H]21; -2.23

Enquiry: Can you look up the measured Percent Effect of CC(=O)N1CCN(Cc2ccccn2)CC2(CC(=O)N(C)C2)C1 (stereo not drawn) for me?
Return: -0.0517

Enquiry: Next entry: O=C(NCc1ccccn1)[C@]12COC[C@H]1CN(C1CCC1)C2
Return: -2.39

Enquiry: What about CN(Cc1cncnc1)[C@H]1CN(CC2CC2)[C@@H]2CCCO[C@@H]21 ?
Return: -2.97

Enquiry: And what about the molecule Cc1cccc(CN2CC[C@@H]3[C@@H]2CCN3C(=O)c2cnoc2C)n1 ?
Return: -3.21

Enquiry: Queued: O=C(NCC(F)(F)F)C1=NOC2(CCCNC2)C1 (stereo not drawn)
Return: -8.38

Enquiry: Would you kindly repeat that for O=C(Cc1ccc(O)c(Cl)c1)N1CCN(CC2CC2)[C@@H]2CS(=O)(=O)C[C@@H]21 ?
Return: -7.75

Enquiry: Try O=C(Cc1cccs1)N1C[C@@H]2OCCN(CC3CCCC3)[C@@H]2C1 next.
Return: -3.05

Enquiry: Similarly, CN(C)c1ncc2c(n1)C1(CCN(Cc3ccccc3)C1)COC2 (stereo not drawn) ?
Return: -2.14

Enquiry: Another: Cc1noc(C)c1CN1CC[C@H]2C[C@@H](c3nccs3)O[C@@H]2C1
Return: -4.73

Enquiry: Please answer likewise for O=C(Cc1csc(-c2ccco2)n1)N1CCN(CCO)CC1
Return: 0.294

Enquiry: Moving on to the next molecule: Cc1oc(-c2ccco2)nc1CC(=O)N1CCN(CC(C)(C)O)CC1
Return: -3.06

Enquiry: Lookup Cc1cccc(CN2C(=O)C[C@H]3[C@@H]2CCN3Cc2ccccn2)n1
Return: 0.959

Enquiry: Now give it for Cc1n[nH]c2c1C(c1cnn(C)c1)SCC(=O)N2 (stereo not drawn) too.
Return: -5.19

Enquiry: Param item: CCN(CC)C(=O)c1ccc(NC(=O)CNc2ccc(F)cc2Cl)cc1
Return: -1.29

Enquiry: Next entry: c1cncc(N2CCOCC3(CCCN(Cc4cccs4)C3)C2)c1 (stereo not drawn)
Return: -5.18

Enquiry: Now consider Cc1nc(CN2CCO[C@H]3[C@@H](OCc4ccccn4)CC[C@@H]32)cs1 .
Return: -6.18

Enquiry: Same again, this time with CO[C@H]1CCN(Cc2ccccn2)[C@@H]2CN(Cc3ccco3)C[C@H]12
Return: -4.75

Enquiry: Further, for COc1c(Br)cc(Br)cc1CNC(C)Cn1cccn1 (stereo not drawn) ?
Return: -4.9
